The entries below come with measured Emax values attached.
biological target: Mu-type opioid receptor (Rattus norvegicus) (UniProt P33535); test: Inhibition of [35S]GTP-gamma-S binding to rat mu opioid receptor expressed in CHO cells; format: functional, cell-based
Sequence (P33535 whole entry): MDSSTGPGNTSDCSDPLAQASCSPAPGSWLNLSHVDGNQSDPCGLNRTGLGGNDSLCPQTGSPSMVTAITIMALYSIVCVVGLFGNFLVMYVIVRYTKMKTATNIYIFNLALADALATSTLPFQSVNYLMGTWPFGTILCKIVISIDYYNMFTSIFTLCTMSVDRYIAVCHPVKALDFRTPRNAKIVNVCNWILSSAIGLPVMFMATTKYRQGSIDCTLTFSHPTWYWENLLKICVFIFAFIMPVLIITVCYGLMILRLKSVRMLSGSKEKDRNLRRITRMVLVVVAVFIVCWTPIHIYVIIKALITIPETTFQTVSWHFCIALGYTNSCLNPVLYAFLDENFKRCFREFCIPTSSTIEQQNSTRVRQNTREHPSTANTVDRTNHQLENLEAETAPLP
Note: unit % is implicit; provide only the numeric part.

# Compound, Value units, Result
rows = [
    ("CCCC[C@H](NC(=O)[C@H](CC(=O)O)NC(=O)[C@H](Cc1ccccc1)NN[C@@H](Cc1ccccc1)C(=O)NCC(=O)N[C@H](C)C(=O)N[C@@H](Cc1ccc(O)cc1)C(=O)O)C(=O)N[C@H](Cc1cn(C(=O)OC23CC4CC(CC(C4)C2)C3)c2ccccc12)C(=O)O", "%", 103),
    ("CCCC[C@@H](C(=O)N[C@@H](Cc1cn(C(C)=O)c2ccccc12)C(=O)O)N(C(=O)Nc1ccccc1Cl)C(=O)[C@H](CC(=O)O)NC(=O)[C@H](Cc1ccccc1)N(C)N[C@@H](Cc1ccccc1)C(=O)NCC(=O)N[C@H](C)C(=O)N[C@@H](Cc1ccc(O)cc1)C(=O)O", "%", 33),
]

# input compound: CCCC[C@H](NC(=O)[C@H](CC(=O)O)NC(=O)[C@H](Cc1ccccc1)NN[C@@H](Cc1ccccc1)C(=O)NCC(=O)N[C@H](C)C(=O)N[C@@H](Cc1ccc(O)cc1)C(=O)O)C(=O)N[C@@H](Cc1cn(C(=O)OC(C)(C)C)c2ccccc12)C(=O)O ; wanted: its Emax
83

What does the data say about its Emax? Entry: CCCC[C@@H](C(=O)N[C@H](Cc1cn(C(=O)OC(C)(C)C)c2ccccc12)C(=O)O)N(C)C(=O)[C@H](CC(=O)O)NC(=O)[C@H](Cc1ccccc1)NN[C@@H](Cc1ccccc1)C(=O)NCC(=O)N[C@H](C)C(=O)N[C@@H](Cc1ccc(O)cc1)C(=O)O
130

Reported Emax for CCCC[C@H](NC(=O)[C@H](CC(=O)O)NC(=O)[C@H](Cc1ccccc1)NN[C@@H](Cc1ccccc1)C(=O)NCC(=O)N[C@H](C)C(=O)N[C@@H](Cc1ccc(O)cc1)C(=O)O)C(=O)N[C@H](Cc1cn(C(=O)OC2C3CC4CC(C3)CC2C4)c2ccccc12)C(=O)O (stereo partly specified) : what is it?
60

Which Emax reading was recorded for the compound CCCC[C@H](NC(=O)[C@H](CC(=O)O)NC(=O)[C@H](Cc1ccccc1)NN[C@@H](Cc1ccccc1)C(=O)NCC(=O)N[C@H](C)C(=O)N[C@@H](Cc1ccc(O)cc1)C(=O)O)C(=O)N[C@H](Cc1cn(C(=O)OC(C)(C)C)c2ccccc12)C(=O)O ?
170

###

molecular target: Delta-type opioid receptor (Mus musculus, UniProt P32300); test: Agonist activity at delta opioid receptor by inhibition of muscle contraction in electrically stimulated isolated mouse vas deferens
Sequence (P32300 whole entry): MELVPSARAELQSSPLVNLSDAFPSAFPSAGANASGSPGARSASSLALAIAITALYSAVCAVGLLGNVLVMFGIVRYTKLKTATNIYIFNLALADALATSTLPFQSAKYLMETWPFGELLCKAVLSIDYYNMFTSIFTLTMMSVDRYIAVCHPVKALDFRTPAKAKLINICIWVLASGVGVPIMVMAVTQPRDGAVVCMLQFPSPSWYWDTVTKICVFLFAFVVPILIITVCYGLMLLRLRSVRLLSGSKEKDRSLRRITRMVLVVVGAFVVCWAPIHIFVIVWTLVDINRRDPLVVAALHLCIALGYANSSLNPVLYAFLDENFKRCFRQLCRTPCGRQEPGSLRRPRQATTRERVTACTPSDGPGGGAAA
Parameter measured: IC50 (nM)
Just the number please, in nM, no unit attached.

Bench note: what IC50 did CCCC[C@H](NC(=O)[C@@H](Cc1c[nH]c2ccccc12)NC(=O)OC(C)(C)C)C(=O)N[C@@H](CC(=O)O)C(=O)N[C@@H](Cc1ccccc1)C(=O)NNC(=O)[C@H](Cc1ccccc1)NC(=O)CNC(=O)[C@@H](C)NC(=O)[C@@H](N)Cc1ccc(O)cc1 show?
24

Reported IC50, molecule CCCC[C@H](NC(=O)[C@H](Cc1c[nH]c2ccccc12)NC(=O)OC(C)(C)C)C(=O)N[C@@H](CC(=O)O)C(=O)N[C@@H](Cc1ccccc1)C(=O)NNC(=O)[C@H](Cc1ccccc1)NC(=O)CNC(=O)[C@@H](C)NC(=O)[C@@H](N)Cc1ccc(O)cc1 : ____
230

Would you kindly share the measured IC50 for CCCC[C@H](NC(=O)[C@@H](Cc1c[nH]c2ccccc12)NC(=O)OC12CC3CC(CC(C3)C1)C2)C(=O)N[C@@H](CC(=O)O)C(=O)N[C@@H](Cc1ccccc1)C(=O)NNC(=O)[C@H](Cc1ccccc1)NC(=O)CNC(=O)[C@@H](C)NC(=O)[C@@H](N)Cc1ccc(O)cc1 ?
38

What IC50 value was documented for this molecule, CC(=O)N[C@@H](Cc1c[nH]c2ccccc12)C(=O)N[C@@H](CCCCNC(=O)Nc1ccccc1Cl)C(=O)N[C@@H](CC(=O)O)C(=O)N(C)[C@@H](Cc1ccccc1)C(=O)NNC(=O)[C@H](Cc1ccccc1)NC(=O)CNC(=O)[C@@H](C)NC(=O)[C@@H](N)Cc1ccc(O)cc1 ?
26
